- System: Aβtotal
- Protocol Notes: Method 1: Aβtotal sandwich ELISA on media of SKNBE2 cells carrying APP 695 wild type
- Format: cell-based
- Condition Info: Homo sapiens, SKNBE2 cells APP 695 wild type, 18 hours
pIC50: −log10 of the molar value.
pIC50 reference

Consider the reported pIC50 for these compounds:
COc1cc(Nc2cccc3cn(Cc4ccc(F)cc4)nc23)ccc1-n1cnc(C)c1 [Compound 15] : < 5.52
Cc1ncoc1-c1ccc(Nc2cccc3c(C)n(-c4ccc(F)cc4)nc23)cn1 [Compound 46] : < 5.52
COc1cccc(-n2nc3c(Nc4ccc(-n5cnc(C)c5)c(OC)c4)cccc3c2C)c1 [Compound 2] : < 6.00
Cc1ncn(-c2ccc(Nc3cccc4c(C)n(CCCC(F)(F)F)nc34)cc2F)n1 [Compound 22] : < 5.52

Aβtotal data for CCCCn1cc2cccc(Nc3ccc(-n4cnc(C)c4)c(OC)c3)c2n1 [Compound 3] ; its pIC50: < 5.52

Aβtotal data for COc1cc(Nc2cccc3cn(CC4CC4)nc23)ccc1-c1cnc(C)o1.Cl [Compound 38, HCl] ; its pIC50: < 5.52

Aβtotal data for COc1cccc(-n2cc3cccc(Nc4ccc(-n5cnc(C)n5)c(OC)c4)c3n2)c1 [Compound 19] ; its pIC50: < 5.52

Aβtotal data for COc1cccc(-n2nc3c(Nc4ccc(-c5ocnc5C)nc4)cccc3c2C)c1 [Compound 4] ; its pIC50: < 5.52

----------
pIC50 reference
- System: Aβ42
- Protocol Notes: Method 2: Aβ42 Alphalisa on supernatant of SKNBE2 cells carrying APP 695 wild type
- Type: cell-based
- Condition Info: Homo sapiens, SKNBE2 cells APP 695 wild type, overnight
pIC50 here is simply -log10 of the concentration when that concentration is written in mol/L.

COc1cc(Nc2cccc3c(C)n(-c4ccc(F)cc4F)nc23)ccc1-n1cnc(C)c1 : 7.27
CCOc1cc(C)c(-n2nc3c(Nc4ccc(-n5cnc(C)n5)c(OC)c4)cccc3c2C)cc1C(C)C : 7.23
Cc1ncn(-c2ccc(Nc3cccc4c(C)n(-c5ccc(F)cc5F)nc34)cc2F)n1 : 6.14
Cc1ncoc1-c1ccc(Nc2cccc3c(C)n(-c4ccc(F)cc4)nc23)cn1 : 7.18

Next molecule, pIC50 to be filled in.
Reported pIC50 ( `Cc1cn(-c2ccc(Nc3cccc4cn(CC(F)(F)F)nc34)cc2F)cn1` ) = 6.47

----------
- System: Aβ42
- Protocol Notes: Method 2: Aβ42 Alphalisa on supernatant of SKNBE2 cells carrying APP 695 wild type
- Format: cell-based
- Condition Info: Homo sapiens, SKNBE2 cells APP 695 wild type, overnight
Measurement Kind: pIC50
pIC50 here is simply -log10 of the concentration when that concentration is written in mol/L.

Consider the reported pIC50 for these molecules:
COc1cccc(-n2nc3c(Nc4ccc(-c5cnc(C)o5)c(OC)c4)nccc3c2C)c1 [Compound 42] : 6.92
CCOc1cc(C)c(-n2nc3c(Nc4ccc(-c5cnc(C)o5)cc4)cccc3c2C)cc1C(C)C [Compound 30] : 6.89
COc1cccc(-n2cc3cccc(Nc4ccc(-n5cnc(C)c5)c(OC)c4)c3n2)c1 [Compound 1] : 7.09

Next molecule, pIC50 to be filled in.
Reported pIC50 ( COc1cc(Nc2cccc3c(C)n(-c4ccc(F)cc4F)nc23)ccc1-c1cnc(C)s1 [Compound 50] ) = 6.17
